# TEST TARGET: β2AR-T4L (Homo sapiens, UniProt P07550, E27Q/G16R/N187E)
# PROTOCOL DESCRIPTION: Saturation binding of [^3H]DHA to membranes from Sf9 cells expressing β2AR-T4L
# ASSAY SETUP: β2AR-T4L, Sf9 membranes, read-out: Kd ± SE
MEASURE: pKd
To interpret pKd, take it as minus log10 of a concentration measured in moles per litre.

In: Give the measured pKd of CCCc1ccccc1OCC(O)CNC(C)C (stereo not shown) [[^3H]DHA, [^3H]-dihydroalprenolol] .
Out: 9.74
